- Target: human NK3 receptor (Homo sapiens)
- Construct: expressed in transfected cells; host or cells: HEK293 cells (transient expression), membrane preparation
- Sequence (P29371 whole entry): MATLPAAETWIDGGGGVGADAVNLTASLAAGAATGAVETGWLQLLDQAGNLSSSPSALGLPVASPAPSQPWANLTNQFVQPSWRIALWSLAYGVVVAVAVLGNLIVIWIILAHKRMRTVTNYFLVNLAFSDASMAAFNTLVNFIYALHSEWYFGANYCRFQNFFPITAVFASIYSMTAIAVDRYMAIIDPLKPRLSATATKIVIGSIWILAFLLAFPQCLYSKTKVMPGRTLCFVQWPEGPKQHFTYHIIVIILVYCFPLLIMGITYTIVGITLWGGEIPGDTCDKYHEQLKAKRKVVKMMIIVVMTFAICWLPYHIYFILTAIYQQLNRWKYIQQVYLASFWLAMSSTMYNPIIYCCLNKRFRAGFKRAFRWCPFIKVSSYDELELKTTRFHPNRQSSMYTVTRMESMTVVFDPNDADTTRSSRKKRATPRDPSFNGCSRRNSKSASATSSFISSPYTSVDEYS
- Test Name: [3H]SR142801 competition binding assay
- Condition Context: hNK3 receptor binding, [3H]SR142801, membranes from HEK293 cells transiently expressing recombinant human NK3 receptor
Readout Name: Ki (nM)

[a] CN(C)CCCNCC(=O)N1C[C@H](c2ccc(Cl)c(Cl)c2)[C@@H](N(C)Cc2ccc(C(F)(F)F)c(F)c2)C1 (racemic) [Example 125]
[b] COc1cccc(N2CCN(C(=O)N3C[C@H](c4ccc(Cl)c(Cl)c4)[C@@H](N(C)Cc4ccc(C(F)(F)F)c(F)c4)C3)CC2)n1 (racemic) [Example 77]
[c] CN(Cc1ccc(C(F)(F)F)c(F)c1)[C@H]1CN(C(=O)N2CCN(c3ccc(C#N)cn3)CC2)C[C@@H]1c1ccc(Cl)c(Cl)c1 (racemic) [Example 73]
Could you list the above compounds by Ki, going from the biggest number down? Return the labels ranked in the requested order, please. a, b, c
(a: 76.8 nM, b: 26.8 nM, c: 1.9 nM)
